test system: P-glycoprotein (MDR1); test: P-glycoprotein substrate potential / permeability in MDR1-transfected MDCK cells; format: in vitro ADME; conditions: dog, pH 7.4; MDCK-MDR1, Papp (B-A)/Papp (A-B)
Metric: efflux ratio at 2 h, 1 µM

CC(C)(O)c1cc(Nc2cc(Oc3cn(C4CC4)nc3C3CCOCC3)ccn2)ccn1 [Compound A, reference compound]    13.7
Cc1ccc(Oc2ccnc(Nc3ccnc(C(C)(C)O)c3)c2)c(C)n1    1.46

P. CC(C)(O)c1ccc(Nc2cc(Oc3cc(C(F)(F)F)nn3C3CCOCC3)ccn2)cn1
Q. CC(C)(O)c1cc(Nc2cc(Oc3cc(C(F)(F)F)nn3-c3ccccn3)ccn2)ccn1
Lower efflux ratio at 2 h, 1 µM: P or Q ? Field: selected label. Fill in the label of the entry you choose.
P
(P: 0.85, Q: 1.35)

====

test system: pooled human hepatocytes; test: Human hepatocyte clearance study; type: in vitro ADME; conditions: human hepatocytes, 0.5×10^6 viable cells/mL, 120 min
Metric: Human Hepatocyte Remaining Percentage @ 120 min (%)
Reply numerically in %, unit not repeated.

Guide cases for Human Hepatocyte Remaining Percentage @ 120 min, answers given:
CC(C)(O)c1cc(Nc2cc(Oc3cccnc3C3CCOCC3)ccn2)ccn1    61
NS(=O)(=O)c1ccc(Nc2cc(Oc3cc(C4CC4)nn3C3CC3)ccn2)cc1    65

Consider Cn1nc(C(F)(F)F)cc1Oc1ccnc(Nc2ccnc(C(C)(C)O)c2)c1 . Its measured Human Hepatocyte Remaining Percentage @ 120 min is 88

Consider CC(C)(O)c1cc(Nc2cc(Oc3cc(C(F)(F)F)nn3C3CCOCC3)ccn2)ccn1 . Its measured Human Hepatocyte Remaining Percentage @ 120 min is 72

Consider CC(C)(O)c1ccc(Nc2cc(Oc3cc(C(F)(F)F)nn3C3CCOCC3)ccn2)cn1 . Its measured Human Hepatocyte Remaining Percentage @ 120 min is 71

Consider NS(=O)(=O)c1ccc(Nc2cc(Oc3cc(C(F)(F)F)nn3C3CCOCC3)ccn2)cc1 . Its measured Human Hepatocyte Remaining Percentage @ 120 min is 64

Consider Cc1ccc(Oc2ccnc(Nc3ccnc(C(C)(C)O)c3)c2)c(C)n1 . Its measured Human Hepatocyte Remaining Percentage @ 120 min is 89

Consider CC(C)(O)c1cc(Nc2cc(Oc3cn(C4CC4)nc3C3CCOCC3)ccn2)ccn1 [Compound A, reference compound] . Its measured Human Hepatocyte Remaining Percentage @ 120 min is 48

====

target: TGFβR1 (Homo sapiens (Human))
Sequence (P36897 34-503): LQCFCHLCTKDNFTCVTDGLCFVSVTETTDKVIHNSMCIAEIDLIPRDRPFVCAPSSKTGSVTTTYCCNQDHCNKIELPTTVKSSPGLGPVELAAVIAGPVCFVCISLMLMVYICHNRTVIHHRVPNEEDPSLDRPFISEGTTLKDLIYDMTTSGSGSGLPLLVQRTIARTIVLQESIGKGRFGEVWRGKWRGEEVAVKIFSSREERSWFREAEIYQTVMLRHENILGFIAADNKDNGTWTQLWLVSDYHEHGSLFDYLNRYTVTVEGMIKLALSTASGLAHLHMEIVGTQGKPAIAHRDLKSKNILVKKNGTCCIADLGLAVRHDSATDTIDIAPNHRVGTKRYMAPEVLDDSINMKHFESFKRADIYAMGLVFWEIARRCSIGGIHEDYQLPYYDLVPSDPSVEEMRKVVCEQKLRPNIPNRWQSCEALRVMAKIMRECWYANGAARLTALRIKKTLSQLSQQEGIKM
Metric: IC50 (nM)

Guide cases for IC50, answers given:
C[C@@H]1CC(c2nn(C3CC3)cc2Oc2ccnc(Nc3ccnc(C(C)(C)O)c3)c2)C[C@H](C)O1 (some centres unmarked)    17
CC(C)(O)c1cc(Nc2cc(Oc3cc(C(F)(F)F)nn3-c3ccccc3C#N)ccn2)ccn1    55
CC(C)(O)c1cc(Nc2cc(Oc3cc(C4CC4)nn3[C@@H]3C[C@H]4CC[C@@H](C3)O4)ccn2)ccn1    19
CC(C)(O)c1cc(Nc2cc(Oc3cc(C(F)(F)F)nn3-c3ccccn3)ccn2)ccn1    12
CC(C)(O)c1cc(Nc2cc(Oc3cc(C4CC4)nn3C3CCOCC3)ncn2)ccn1    825

A. CC(C)(O)c1cc(Nc2cc(Oc3cc(C(F)(F)F)nn3C3CCNC3)ccn2)ccn1 (centres unmarked)
B. CC(C)(O)c1cc(Nc2cc(Oc3cc(C(F)(F)F)nn3-c3ccccc3Cl)ccn2)ccn1
Lower IC50: A or B ? Field: selected label. Fill in the label of the entry you choose.
B
(B: 71 nM, A: 868 nM)

I. COc1cc(Oc2ccnc(Nc3ccnc(C(C)(C)O)c3)c2)n(C2CCOCC2)n1
II. CC(C)(O)c1cc(Nc2cc(Oc3cc(C4CC4)nn3C3CC3)ccn2)ccn1
III. CC(C)(O)c1cc(Nc2cc(Oc3cc(C(F)(F)F)nn3-c3ccc(F)cc3)ccn2)ccn1
Number of compounds to sort: 3. Sort criterion: IC50, ascending. The labels, placed in the requested order, form the answer.
II, III, I
(II: 43 nM, III: 86 nM, I: 126 nM)

A. CC(C)(O)c1cc(Nc2cc(Oc3cn(CC(F)(F)F)nc3C3CCOCC3)ccn2)ccn1
B. CC(C)(O)c1ccc(Nc2cc(Oc3cc(C(F)(F)F)nn3C3CCOCC3)ccn2)cn1
C. CC(C)(O)c1cc(Nc2cc(Oc3cc(C(F)(F)F)nn3C3CCCNC3)ccn2)ccn1 (centres unmarked)
Number of compounds to sort: 3. Sort criterion: IC50, ascending. The labels, placed in the requested order, form the answer.
B, C, A

P. CC(C)(O)c1cc(Nc2cc(Oc3cc(C(F)(F)F)nn3-c3ccccc3F)ccn2)ccn1
Q. CC(C)(O)c1cc(Nc2cc(Sc3cn(C4CC4)nc3C3CCOCC3)ccn2)ccn1
Of P and Q , which one carries the higher reported IC50? Field: selected label. Fill in the label of the entry you choose.
Q

1. CC(C)(O)c1cc(Nc2cc(Oc3cc(C(F)(F)F)nn3C3CC3)ccn2)ccn1
2. C[C@@H]1C[C@@H](n2nc(C(F)(F)F)cc2Oc2ccnc(Nc3ccnc(C(C)(C)O)c3)c2)C[C@H](C)O1
3. CC(C)(O)c1cc(Nc2cc(Oc3cc(C(F)(F)F)nn3-c3cccnc3)ccn2)ccn1
4. Cc1ccc(Oc2ccnc(Nc3ccnc(C(C)(C)O)c3)c2)c(CC(C)C)n1
Number of compounds to sort: 4. Sort criterion: IC50, ascending. The labels, placed in the requested order, form the answer.
4, 2, 3, 1
(4: 4 nM, 2: 89 nM, 3: 283 nM, 1: 557 nM)

I. CC(C)c1nc(C2CCOCC2)c(Oc2ccnc(Nc3ccnc(C(C)(C)O)c3)c2)s1
II. CC(C)(O)c1cc(Nc2cc(Oc3cc(C4CC4)nn3CC(F)(F)F)ccn2)ccn1
Lower IC50: I or II ? Field: selected label. Fill in the label of the entry you choose.
II
(II: 37 nM, I: 90 nM)

A. Cc1ccc(-n2nc(C(F)(F)F)cc2Oc2ccnc(Nc3ccnc(C(C)(C)O)c3)c2)cc1
B. Cc1ccc(Oc2ccnc(Nc3ccnc(C(C)(C)O)c3)c2)c(C(F)(F)F)n1
Of A and B , which one carries the higher reported IC50? Field: selected label. Fill in the label of the entry you choose.
B
(B: 82 nM, A: 42 nM)

The values you see were collected from patent US11691981B2.
